Experiment: inhibitors of DENV2 cytopathic effect, primary screen, cell-based, plate reader, single concentration (AID 651640);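 note: 0% = median of neutral control wells and 100% = median of positive control wells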
Conditions: DENV2-infected cells, cytopathic effect rescue, at 9.99 µM, hits give high values
The whole screen tested about 350,000 compounds, of which about 6,000 (1.7%) were called active. Another 5% or so got no clear call; they are omitted. What follows is part of a selection rich in actives, with near analogues and random picks from the rest.
Please mark 1 if the recorded CPE inhibition is equal to or greater than -10%, and -1 if it falls below.

// below: answered molecules
[
  {
    "molecule": "CCNC[C@@H]1[C@@H](c2ccccc2)[C@@H](CO)N1C(=O)Cc1ccccn1",
    "discrete-label": 1
  },
  {
    "molecule": "COc1ccc(C2CC(c3cccs3)=NN2C(=O)CSc2nncs2)cc1OC (stereo not given)",
    "discrete-label": 1
  },
  {
    "molecule": "CCC(C(=O)NC(C)(C)C)n1c(-c2ccccc2)nc2ccccc21 (stereo not given)",
    "discrete-label": -1
  }
]

stdin: CPE inhibition >= -10% for `COCC(=O)N1[C@H](CO)[C@@H](c2ccccc2)[C@H]1CN(C)C(=O)c1ccncc1` ?
stdout: -1

stdin: CPE inhibition >= -10% for CCCc1nc2ccccc2n1C(C)C(=O)NC(C)(C)C (stereo not given) ?
stdout: 1
